test: electronic properties, UV/Vis spectrophotometry of methanolic solutions; assay type: physicochemical; details: methanolic solution c = 8.0 × 10^−5 M, charge-transfer maximum λ2 (Ch-T) = 236–238 nm
Field: log ε2 (Ch-T). Provide a value for each of the compounds that follow.
Enter the number alone.

Task item: Can you look up the measured log ε2 (Ch-T) of CCCCCCOc1cccc(NC(=O)OC(CN(CCC)CCC)CN2CCCC2)c1 (centres unmarked) for me?
Reply: 4.13

Task item: Can you look up the measured log ε2 (Ch-T) of CCCCCCOc1ccccc1NC(=O)OC(CN(CCC)CCC)CN1CCCC1 (centres unmarked) for me?
Reply: 4.52

Task item: Can you look up the measured log ε2 (Ch-T) of CCCCCOc1cccc(NC(=O)OC(CN(CCC)CCC)CN2CCCCCC2)c1.Cl.Cl (centres unmarked) for me?
Reply: 4.18

Task item: Can you look up the measured log ε2 (Ch-T) of CCCCCCOc1ccccc1NC(=O)OC(CN(CCC)CCC)CN1CCCCCC1 (centres unmarked) for me?
Reply: 4.10

Task item: Can you look up the measured log ε2 (Ch-T) of CCCCOc1ccccc1NC(=O)OC(CN(CCC)CCC)CN1CCCCCC1 (centres unmarked) for me?
Reply: 4.08
